test system: KHOS-240S; assay: relative viability vs DMSO control (72 h) (fraction); higher = more viable cells; settings: 0.1235 µM
value-kind: relative viability

                           structure_string  measured_value
0  CCCS(=O)(=O)N[C@H]1C[C@@H](N(C)c2ncnc3[nH]ccc23)C1           0.991
1  COc1cc2c(Oc3ccc4[nH]c(C)cc4c3F)ccnc2cc1OCC1(N)CC1            1.03
2  N#CCC1(n2cc(-c3ncnc4[nH]ccc34)cn2)CN(C2CCN(C(=O)c3ccnc(C(F)(F)F)c3F)CC2)C1           0.984
3  CCN(CCCOc1ccc2c(Nc3cc(CC(=O)Nc4cccc(F)c4)[nH]n3)ncnc2c1)CCOP(=O)(O)O           0.794
4  FC(F)(F)c1ccc(CNc2ccc(Cc3c[nH]c4ncc(Cl)cc34)cn2)cn1             1.1
5  C=CC(=O)Nc1cc(Nc2nccc(-c3cn(C)c4ccccc34)n2)c(OC)cc1N(C)CCN(C)C            1.05
6  Cc1cccc(-c2[nH]c(CNc3ccccc3F)nc2-c2ccc3ncnn3c2)n1           0.992
7  COc1cc2ncnc(Nc3ccc(F)c(Cl)c3)c2cc1NC(=O)/C=C/CN1CCCCC1            1.08
8  Cc1nc(Nc2ncc(C(=O)Nc3c(C)cccc3Cl)s2)cc(N2CCN(CCO)CC2)n1           0.494

Source: the supplement of paper PMC10883282
